# Test system: Streptococcus pneumoniae
# run-description: Antibacterial activity against constitutive macrolide, lincosamide, streptogramin-resistant Streptococcus pneumoniae 58 spain by broth microdilution method
# Type: functional

# sample-smiles, MIC
rows = [
    ("CC[C@H]1OC(=O)[C@H](C)[C@@H](O[C@H]2C[C@@](C)(OC)[C@@H](OC(=O)CCOCCOCCNc3cc4c(=O)c(C(=O)O)cn(CC)c4cc3Cl)[C@H](C)O2)[C@H](C)[C@@H](O[C@@H]2O[C@H](C)C[C@H](N(C)C)[C@H]2O)[C@](C)(O)C[C@@H](C)CN(C)[C@H](C)[C@@H](O)[C@]1(C)O", "≤ 0.125 µg/mL"),
    ("CCCn1cc(C(=O)O)c(=O)c2cc(NCCOCCOCCC(=O)O[C@H]3[C@H](C)O[C@@H](O[C@H]4[C@H](C)[C@@H](O[C@@H]5O[C@H](C)C[C@H](N(C)C)[C@H]5O)[C@](C)(O)C[C@@H](C)CN(C)[C@H](C)[C@@H](O)[C@](C)(O)[C@@H](CC)OC(=O)[C@@H]4C)C[C@@]3(C)OC)c(Cl)cc21", "≤ 0.125 µg/mL"),
    ("CC[C@H]1OC(=O)[C@H](C)[C@@H](O[C@H]2C[C@@](C)(OC)[C@@H](OC(=O)CCOCCNc3cc4c(=O)c(C(=O)O)cn(C5CC5)c4cc3Cl)[C@H](C)O2)[C@H](C)[C@@H](O[C@@H]2O[C@H](C)C[C@H](N(C)C)[C@H]2O)[C@](C)(O)C[C@@H](C)CN(C)[C@H](C)[C@@H](O)[C@]1(C)O", "≤ 0.125 µg/mL"),
    ("CC[C@H]1OC(=O)[C@H](C)[C@@H](O[C@H]2C[C@@](C)(OC)[C@@H](OC(=O)CCOCCOc3cc4c(=O)c(C(=O)OCOC(=O)C(C)(C)C)cn(C5CC5)c4cc3Cl)[C@H](C)O2)[C@H](C)[C@@H](O[C@@H]2O[C@H](C)C[C@H](N(C)C)[C@H]2O)[C@](C)(O)C[C@@H](C)CN(C)[C@H](C)[C@@H](O)[C@]1(C)O", "≤ 0.125 µg/mL"),
    ("CC[C@H]1OC(=O)[C@H](C)[C@@H](O[C@H]2C[C@@](C)(OC)[C@@H](OC(=O)CCOCCOCCNc3ccc4c(c3)c(=O)c(C(=O)O)cn4CC)[C@H](C)O2)[C@H](C)[C@@H](O[C@@H]2O[C@H](C)C[C@H](N(C)C)[C@H]2O)[C@](C)(O)C[C@@H](C)CN(C)[C@H](C)[C@@H](O)[C@]1(C)O", "≤ 0.125 µg/mL"),
    ("CC[C@H]1OC(=O)[C@H](C)[C@@H](O[C@H]2C[C@@](C)(OC)[C@@H](OC(=O)CCOCCNc3cc4c(=O)c(C(=O)OCCN5CCCC5)cn(C5CC5)c4cc3Cl)[C@H](C)O2)[C@H](C)[C@@H](O[C@@H]2O[C@H](C)C[C@H](N(C)C)[C@H]2O)[C@](C)(O)C[C@@H](C)CN(C)[C@H](C)[C@@H](O)[C@]1(C)O", "≤ 0.125 µg/mL"),
    ("CC[C@H]1OC(=O)[C@H](C)C(=O)[C@H](C)[C@@H](O[C@@H]2O[C@H](C)C[C@H](N(C)C)[C@H]2O)[C@](C)(OC)C[C@@H](C)C(=O)[C@H](C)[C@H]2N(CCCCn3cnc(-c4cccnc4)c3)C(=O)O[C@]12C", "0.25 µg/mL"),
    ("CC[C@H]1OC(=O)[C@H](C)[C@@H](O[C@H]2C[C@@](C)(OC)[C@@H](OC(=O)CCOCCOc3cc4c(=O)c(C(=O)O)cn(C5CC5)c4cc3Cl)[C@H](C)O2)[C@H](C)[C@@H](O[C@@H]2O[C@H](C)C[C@H](N(C)C)[C@H]2O)[C@](C)(O)C[C@@H](C)CN(C)[C@H](C)[C@@H](O)[C@]1(C)O", "0.5 µg/mL"),
    ("CC[C@H]1OC(=O)[C@H](C)[C@@H](O[C@H]2C[C@@](C)(OC)[C@@H](OC(=O)CCOCCNc3ccc4c(c3)c(=O)c(C(=O)O)cn4C3CC3)[C@H](C)O2)[C@H](C)[C@@H](O[C@@H]2O[C@H](C)C[C@H](N(C)C)[C@H]2O)[C@](C)(O)C[C@@H](C)CN(C)[C@H](C)[C@@H](O)[C@]1(C)O", "≤ 0.125 µg/mL"),
    ("CC[C@H]1OC(=O)[C@H](C)[C@@H](O[C@H]2C[C@@](C)(OC)[C@@H](OC(=O)CCOCCOCCNc3ccc4c(c3)c(=O)c(C(=O)O)cn4C3CC3)[C@H](C)O2)[C@H](C)[C@@H](O[C@@H]2O[C@H](C)C[C@H](N(C)C)[C@H]2O)[C@](C)(O)C[C@@H](C)CN(C)[C@H](C)[C@@H](O)[C@]1(C)O", "≤ 0.125 µg/mL"),
    ("CC[C@H]1OC(=O)[C@H](C)[C@@H](O[C@H]2C[C@@](C)(OC)[C@@H](OC(=O)CCOCCNc3cc4c(=O)c(C(=O)OC(C)C)cn(C5CC5)c4cc3Cl)[C@H](C)O2)[C@H](C)[C@@H](O[C@@H]2O[C@H](C)C[C@H](N(C)C)[C@H]2O)[C@](C)(O)C[C@@H](C)CN(C)[C@H](C)[C@@H](O)[C@]1(C)O", "≤ 0.125 µg/mL"),
    ("CC[C@H]1OC(=O)[C@H](C)[C@@H](O[C@H]2C[C@@](C)(OC)[C@@H](O)[C@H](C)O2)[C@H](C)[C@@H](O[C@@H]2O[C@H](C)C[C@H](N(C)C)[C@H]2O)[C@](C)(O)C[C@@H](C)CN(C)[C@H](C)[C@@H](O)[C@]1(C)O", "> 64 µg/mL"),
    ("CCC(=O)CNC(=O)COC(=O)c1cn(C2CC2)c2ccc(NCCOCCC(=O)O[C@H]3[C@H](C)O[C@@H](O[C@H]4[C@H](C)[C@@H](O[C@@H]5O[C@H](C)C[C@H](N(C)C)[C@H]5O)[C@](C)(O)C[C@@H](C)CN(C)[C@H](C)[C@@H](O)[C@](C)(O)[C@@H](CC)OC(=O)[C@@H]4C)C[C@@]3(C)OC)cc2c1=O", "≤ 0.125 µg/mL"),
    ("CC[C@H]1OC(=O)[C@H](C)[C@@H](O[C@H]2C[C@@](C)(OC)[C@@H](OC(=O)CCOCCNc3cc4c(=O)c(C(=O)OCOC(=O)C(C)(C)C)cn(C5CC5)c4cc3Cl)[C@H](C)O2)[C@H](C)[C@@H](O[C@@H]2O[C@H](C)C[C@H](N(C)C)[C@H]2O)[C@](C)(O)C[C@@H](C)CN(C)[C@H](C)[C@@H](O)[C@]1(C)O", "0.5 µg/mL"),
]

====

Overview of reported MIC across a group of molecules:
# Tested on: Streptococcus pneumoniae
# run-description: Antibacterial activity against constitutive macrolide, lincosamide, streptogramin-resistant Streptococcus pneumoniae 58 spain by broth microdilution method
# Type: functional
observable: MIC (mg/L)

# sample-smiles, unit-of-measurement, readout-relation, recorded-value
data = [
    ("CC[C@H]1OC(=O)[C@H](C)[C@@H](O[C@H]2C[C@@](C)(OC)[C@@H](OC(=O)CCOCCOc3cc4c(=O)c(C(=O)OC(C)C)cn(C5CC5)c4cc3Cl)[C@H](C)O2)[C@H](C)[C@@H](O[C@@H]2O[C@H](C)C[C@H](N(C)C)[C@H]2O)[C@](C)(O)C[C@@H](C)CN(C)[C@H](C)[C@@H](O)[C@]1(C)O", "mg/L", "=", 0.25),
    ("CC[C@H]1OC(=O)[C@H](C)[C@@H](O[C@H]2C[C@@](C)(OC)[C@@H](OC(=O)CCOCCOCCNc3cc4c(=O)c(C(=O)O)cn(C5CC5)c4cc3Cl)[C@H](C)O2)[C@H](C)[C@@H](O[C@@H]2O[C@H](C)C[C@H](N(C)C)[C@H]2O)[C@](C)(O)C[C@@H](C)CN(C)[C@H](C)[C@@H](O)[C@]1(C)O", "mg/L", "≤", 0.125),
]

====

Each entry below carries its reported MIC.
# Test system: Streptococcus pyogenes
# run-description: Antibacterial activity against inducible macrolide-lincosamide-streptogramin B resistant Streptococcus pyogenes Finland 11 by broth microdilution method
# Format: functional

# sample-smiles, assayed-target, MIC
rows = [
    ("CC[C@H]1OC(=O)[C@H](C)[C@@H](O[C@H]2C[C@@](C)(OC)[C@@H](OC(=O)CCOCCOc3ccc4c(c3)c(=O)c(C(=O)OC(C)C)cn4C3CC3)[C@H](C)O2)[C@H](C)[C@@H](O[C@@H]2O[C@H](C)C[C@H](N(C)C)[C@H]2O)[C@](C)(O)C[C@@H](C)CN(C)[C@H](C)[C@@H](O)[C@]1(C)O", "Streptococcus pyogenes", "≤ 0.125 µg/mL"),
    ("CCCOC(=O)c1cn(C2CC2)c2cc(Cl)c(NCCOCCC(=O)O[C@H]3[C@H](C)O[C@@H](O[C@H]4[C@H](C)[C@@H](O[C@@H]5O[C@H](C)C[C@H](N(C)C)[C@H]5O)[C@](C)(O)C[C@@H](C)CN(C)[C@H](C)[C@@H](O)[C@](C)(O)[C@@H](CC)OC(=O)[C@@H]4C)C[C@@]3(C)OC)cc2c1=O", "Streptococcus pyogenes", "≤ 0.125 µg/mL"),
    ("CC[C@H]1OC(=O)[C@H](C)[C@@H](O[C@H]2C[C@@](C)(OC)[C@@H](OC(=O)CCOCCNc3ccc4c(c3)c(=O)c(C(=O)O)cn4C3CC3)[C@H](C)O2)[C@H](C)[C@@H](O[C@@H]2O[C@H](C)C[C@H](N(C)C)[C@H]2O)[C@](C)(O)C[C@@H](C)CN(C)[C@H](C)[C@@H](O)[C@]1(C)O", "Streptococcus pyogenes", "≤ 0.125 µg/mL"),
]
